test summary: Quantitative High-Throughput drug screen in 47 multiple myeloma cell lines against the NCATS MIPE library collection: EJM_DSMZ cell viability assay (AID 1918926; also: nearly all actives have a fitted effect of over 30% in size)
condition context: EJM myeloma cell viability, CellTiter-Glo ATP, 48 h; series mostly up to 45.8 µM
Records with an inconclusive call do not appear. Calls of active or inactive are those of the source. Calls follow the shape of the dose curve; as a rule, active = well fitted cell-killing curve with a large enough effect; inconclusive = small, poorly fitted or top-dose-only effect, or effect the other way; inactive = no such curve, though single readings can be large or run the other way.
Log the outcome using a class from YES (active), NO (inactive)

For orientation, consider the following solved cases.
INSERT INTO results (compound, class_label) VALUES
  ('c1cc(OCCN2CCCCC2)cc(-c2n[nH]c3ccc(-c4ncn[nH]4)cc23)c1', 'YES'),
  ('C=C1[C@H](n2cnc3c(=O)[nH]c(N)nc32)C[C@H](O)[C@H]1CO', 'NO');

Outcome logged for "CCN1CCC(n2cc(CNc3cc(Cl)c4ncc(C#N)c(Nc5ccc(F)c(Cl)c5)c4c3)nn2)CC1" in this assay:
YES

Outcome logged for CC=C1C2C=C(C)CC1(N)c1ccc(=O)[nH]c1C2 (stereo not drawn) in this assay:
NO

Outcome logged for "O=C1NC(=O)C(c2cnc3ccccn23)=C1c1cn2c3c(cccc13)CN(C(=O)N1CCOCC1)CC2" in this assay:
YES

These measurements were taken from PubChem BioAssay (NCATS).
